Experiment: qHTS assay for identifying genotoxic compounds that show differential cytotoxicity against isogenic chicken DT40 cell lines with known DNA damage response pathways - Rev3 mutant cell line (AID 743014); note: nearly all actives have a fitted effect of over 55% in size
Conditions: chicken DT40 Rev3-/- viability, CellTiter-Glo, 40 h; series mostly up to 68.4 µM
Results filed as inconclusive are left out. The source made the active and inactive calls. Calls come from the whole dose curve; as a rule, active = well fitted cell-killing curve with a large enough effect in the repeat runs; inconclusive = weak or mixed curves, or effect the other way; inactive = no such curve, though single readings can be large or run the other way. Non-standard residues stand in square brackets, D forms with d. Residues, ends and D or L forms follow the SMILES beside them. Orn = NCCC[C@H](N)C(=O)O
Tick one outcome: yes for active, no for inactive

Known results for compounds:
compound	discreteLabel
CC(C)C[C@@H]1NC(=O)[C@H](CCCN)NC(=O)[C@H](C(C)C)NC(=O)[C@@H]2CCCN2C(=O)[C@@H](Cc2ccccc2)NC(=O)[C@H](CC(C)C)NC(=O)[C@H](CCCN)NC(=O)[C@H](C(C)C)NC(=O)[C@@H]2CCCN2C(=O)[C@@H](Cc2ccccc2)NC1=O (cyclo(V[Orn]L[dF]PV[Orn]L[dF]P))	yes
C=CC[N@@+]12CC[C@@]34c5ccccc5N5/C=C6/[C@H]7C[C@H]8[C@@]9(CC[N@@+]8(CC=C)C/C7=C/CO)c7ccccc7N(/C=C(/[C@@H](C[C@@H]31)/C(=C\CO)C2)[C@H]54)[C@@H]69	no
Oc1ccc(Cl)c2c1CCC2	no
CC1=C(/C=C/C(C)=C/C=C/C(C)=C\C(=O)O)C(C)(C)CCC1	yes

### Prompt Status in this test for NC[C@@H]1CC[C@@H](N)[C@@H](O[C@H]2[C@H](O)[C@@H](O[C@H]3O[C@H](CO)[C@@H](O)[C@H](N)[C@H]3O)[C@H](N)C[C@@H]2N)O1 ?
### Response no

### Prompt Could you check what this test reported for NCc1cccc(C2CCN(C(=O)c3ccc(C#Cc4ccccc4F)o3)CC2)c1 ?
### Response yes

### Prompt Tell me the recorded outcome of this test for CCCCCCCCCCCCN1CCCC1=O .
### Response yes

### Prompt Tell me the recorded outcome of this test for O=C(CCCCCCCCc1cccnc1)N1CCC(C=C(c2ccccc2)c2ccccc2)CC1 .
### Response yes

---

Target: Aromatase (Homo sapiens) (UniProt P11511)
Sequence (P11511 whole entry, looked up): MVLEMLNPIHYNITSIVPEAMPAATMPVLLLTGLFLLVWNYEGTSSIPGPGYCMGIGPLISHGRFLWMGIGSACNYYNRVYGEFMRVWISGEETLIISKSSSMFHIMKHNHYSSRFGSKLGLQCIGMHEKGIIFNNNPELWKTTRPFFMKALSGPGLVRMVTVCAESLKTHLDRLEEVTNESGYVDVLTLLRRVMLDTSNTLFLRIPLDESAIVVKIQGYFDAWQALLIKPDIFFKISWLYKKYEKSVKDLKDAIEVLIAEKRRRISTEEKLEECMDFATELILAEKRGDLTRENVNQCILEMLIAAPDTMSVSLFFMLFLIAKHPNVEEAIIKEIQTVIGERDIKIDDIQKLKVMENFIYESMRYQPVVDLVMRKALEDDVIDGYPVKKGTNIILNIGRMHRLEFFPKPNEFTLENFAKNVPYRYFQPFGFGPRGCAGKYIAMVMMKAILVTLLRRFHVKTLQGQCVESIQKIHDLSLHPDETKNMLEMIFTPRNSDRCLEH
Test: qHTS assay to identify aromatase inhibitors (AID 743083); note: nearly all actives have a fitted effect of over 55% in size
Settings: MCF-7 aro ERE, testosterone-driven ERE luciferase, 24 h; series mostly up to 70.3 µM
Records with an inconclusive call do not appear. The source made the active and inactive calls. Calls follow the shape of the dose curve; as a rule, active = well fitted inhibition curve with a large enough effect in the repeat runs; inconclusive = weak or mixed curves; inactive = no such curve, though single readings can be large or run the other way.
Write down one outcome, taken from active, inactive

Previously resolved entries follow.
compound	discreteLabel
CCCCCCCCCCCCCCCCCCNC(=O)OC1CCN(C(=O)OC[C@H](COC(=O)N(Cc2cccc[n+]2CC)C(=O)c2ccccc2OC)OC)CC1	active
CNC(=O)OCc1cccc(COC(=O)NC)n1	inactive
C=C1[C@@H]2CC[C@@H](C2)C1(C)C	inactive
CCC(NC(C)C)C(O)c1ccc(O)c(O)c1 (stereo unspecified)	inactive
CN1CCN(c2ccccc2/C=C2\SCCN(c3ccc(Cl)c(Cl)c3)C2=O)CC1	inactive

### Prompt Could you kindly confirm the outcome this assay logged for COc1cccc(-c2ccc(/C=C\CN3CCCCCC3)cc2Cl)c1 ?
### Response active

---

Biological target: Estrogen receptor beta (Homo sapiens)
Assay: qHTS assay to identify small molecule antagonists of the estrogen receptor beta (ER-beta) signaling pathway (AID 1259378)
Details: ER-beta-UAS-bla HEK293T, beta-lactamase FRET ratio, 16 h; series mostly up to 92.4 µM
Records with an inconclusive call do not appear. Active and inactive are the calls of the source. Calls follow the shape of the dose curve; as a rule, active = well fitted inhibition curve with a large enough effect in the signal ratio in the repeat runs (not every such curve was filed as active); inconclusive = weak or mixed curves, or effect the other way; inactive = no such curve, though single readings can be large or run the other way; the % refers to the signal ratio.
Mark one answer only. Choices: y for active, n for inactive

compound	discreteLabel
CC(C)c1ccc2sc3ccccc3c(=O)c2c1	n
NCc1cccc(C2CCN(C(=O)c3ccc(C#Cc4ccccc4F)o3)CC2)c1	y

### Prompt Check the results log: what was the call for Nc1cc([N+](=O)[O-])ccc1Cl ?
### Response n

### Prompt Per the records of this test, what outcome belongs to CCCCCCCCOC(=O)c1cc(O)c(O)c(O)c1 ?
### Response y

### Prompt Dear all, I need the recorded test outcome for C/C=C/C(=O)OCC(C)C , thank you.
### Response n

### Prompt Assay result, entry NC(=O)C1CO1 (centres undefined) — outcome?
### Response n

### Prompt Returns: the outcome recorded for CC(C)(C)c1cc(CCC(=O)OCCSCCOC(=O)CCc2cc(C(C)(C)C)c(O)c(C(C)(C)C)c2)cc(C(C)(C)C)c1O in this assay.
### Response n

### Prompt Can you look up the reported call for CSc1ccc(O)cc1C for me?
### Response y

### Prompt Tell me the assay call for O=C1CCC(=O)N1 please.
### Response n

---

Biological target: Aromatase (Homo sapiens) (UniProt P11511)
Experiment: qHTS assay to identify aromatase inhibitors (AID 743083); note: nearly all actives have a fitted effect of over 55% in size
Details: MCF-7 aro ERE, testosterone-driven ERE luciferase, 24 h; series mostly up to 70.3 µM
Results filed as inconclusive are left out. Active and inactive are the calls of the source. Calls follow the shape of the dose curve; as a rule, active = well fitted inhibition curve with a large enough effect in the repeat runs; inconclusive = weak or mixed curves; inactive = no such curve, though single readings can be large or run the other way. Positions of bridges follow the written chain, without caps; N, C: chain ends. Non-standard residues stand in square brackets, D forms with d. Residues, ends and D or L forms follow the SMILES beside them. *: point of attachment. Dab(CH2SO3H) = N[C@@H](CCNCS(=O)(=O)O)C(=O)O; X3 = CC[C@@H](C)CCCCC(=O)*; Dab = NCC[C@H](N)C(=O)O
Outcome field: choose from true (1) (active), false (0) (inactive)

compound	discreteLabel
CC(C)(O/N=C(\C(=O)N[C@@H]1C(=O)N2C(C(=O)[O-])=C(C[n+]3ccccc3)CS[C@H]12)c1csc(N)n1)C(=O)O	false (0)
NCC(O)CC(=O)O (stereo not given)	false (0)
CN[C@@H]1[C@@H](O[C@H]2O[C@H](CO)[C@@H](N)[C@H](O)[C@H]2O)O[C@H]2C[C@@H](N)[C@@H](O[C@H]3[C@H](O)[C@@H](O)[C@H](N)C[C@@H]3N)O[C@@H]2[C@@H]1O	false (0)
CS(=O)(=O)c1ccc([C@@H](CC2CCCC2)C(=O)Nc2cnccn2)cc1Cl	false (0)
Cc1c(N)nc([C@H](CC(N)=O)NC[C@H](N)C(N)=O)nc1C(=O)N[C@H](C(=O)N[C@H](C)[C@@H](O)[C@H](C)C(=O)N[C@H](C(=O)NCCc1nc(-c2nc(C(=O)NCCCCN=C(N)N)cs2)cs1)[C@@H](C)O)[C@@H](O[C@@H]1O[C@@H](CO)[C@@H](O)[C@H](O)[C@@H]1O[C@H]1O[C@H](CO)[C@@H](O)[C@H](OC(N)=O)[C@@H]1O)c1cnc[nH]1	false (0)
CC[C@@H](C)CCCCC(=O)N[C@@H](CCNCS(=O)(=O)O)C(=O)N[C@H](C(=O)N[C@@H](CCNCS(=O)(=O)O)C(=O)N[C@H]1CCNC(=O)[C@H]([C@@H](C)O)NC(=O)[C@H](CCNCS(=O)(=O)O)NC(=O)[C@H](CCNCS(=O)(=O)O)NC(=O)[C@H](CC(C)C)NC(=O)[C@@H](CC(C)C)NC(=O)[C@H](CCNCS(=O)(=O)O)NC1=O)[C@@H](C)O (X3-[Dab(CH2SO3H)]T[Dab(CH2SO3H)][Dab][Dab(CH2SO3H)][dL]L[Dab(CH2SO3H)][Dab(CH2SO3H)]T; lactam 4-C)	false (0)
CN1C(C(=O)Nc2ccccn2)C(=O)c2sc(Cl)cc2S1(=O)=O (stereo not given)	false (0)
CCCCC[C@H](O)/C=C/[C@@H]1[C@@H](C/C=C\CCCC(=O)O)[C@@H](O)C[C@H]1O	false (0)
Cc1ccc(Cl)c(N)c1Cl	false (0)
O=C(Cn1cnnn1)N[C@@H]1C(=O)N2C(C(=O)O)=C(CSc3nncs3)CS[C@H]12	false (0)

### Prompt Hello, I am checking results. What call was entered for NCC1CCC(C(=O)O)CC1 (stereo not given) ?
### Response false (0)

### Prompt Call for entry Cc1cc(Br)ccc1NC(=O)CCl :
### Response true (1)

### Prompt Give the logged outcome of this assay for the following compound: CC(=O)OCC(=O)[C@@]1(O)CC[C@H]2[C@@H]3CCC4=CC(=O)CC[C@]4(C)C3=CC[C@@]21C
### Response false (0)

### Prompt What did the test return for CC1=C(/C=C/C(C)=C/C=C/C(C)=C\C(=O)O)C(C)(C)CCC1 ?
### Response false (0)

### Prompt Check the results log: what was the call for O=C(O)[C@H]1CN(C/C=C/P(=O)(O)O)CCN1 ?
### Response false (0)

### Prompt What outcome does the record of this test show for Cc1cc(=O)c(C(=O)N[C@@H](C(=O)N[C@@H]2C(=O)N3C(C(=O)O)=C(CSc4nnnn4C)CS[C@H]23)c2ccc(O)cc2)c[nH]1 ?
### Response false (0)

### Prompt What did this assay record as the result for NS(=O)(=O)c1cc(Cl)c(Cl)c(S(N)(=O)=O)c1 ?
### Response false (0)

### Prompt Which outcome was assigned to NCCCC(=O)O in this test?
### Response false (0)

### Prompt Could you check what this test reported for O=C1c2ccccc2-c2n[nH]c3cccc1c23 ?
### Response false (0)

### Prompt Can you look up the reported call for O=S(=O)(O)CC(S)CS (stereo not given) for me?
### Response false (0)

### Prompt Please share the test call associated with CC1(C)S[C@@H]2[C@H](N3C(=O)C(c4ccccc4)NC3(C)C)C(=O)N2[C@H]1C(=O)O (stereo not given in full) .
### Response false (0)

### Prompt Short answer needed: outcome of this test for COc1ccc(/C=N/NC(=O)c2ccncc2)c(C(=O)O)c1OC ?
### Response false (0)

### Prompt Dear all, I need the recorded test outcome for CC(C)Cc1ccc([C@H](C)C(=O)O)cc1 , thank you.
### Response false (0)

### Prompt Which result was noted for this compound in the test: CCCCCCCC/C=C\CCCCCCCC(=O)N(CCO)CCO
### Response false (0)

### Prompt State the result this test recorded for CO/N=C(\C(=O)N[C@@H]1C(=O)N2C(C(=O)[O-])=C(C[n+]3ccc(N)n3CCO)CS[C@H]12)c1csc(N)n1 .
### Response false (0)

### Prompt Outcome logged for S=C1NC=NC2N=CNC12 (stereo not given) in this assay:
### Response false (0)

### Prompt Answer briefly: the call reported for O=C[C@H](O)[C@@H](O)[C@@H](O)[C@H](O)CO in this assay.
### Response false (0)

### Prompt Hello, I am checking results. What call was entered for CC1=C(/C=C/C(C)=C/C=C/C(C)=C/C=C/C=C(C)/C=C/C=C(C)/C=C/C2=C(C)CCCC2(C)C)C(C)(C)CCC1 ?
### Response false (0)

### Prompt For NCCO/C=C/[C@H](N)C(=O)O , which call appears in the assay record?
### Response false (0)

### Prompt Please indicate how the test categorized COC(=O)C(CN)c1c[nH]c2ccc(OC)cc12 (stereo not given) .
### Response false (0)

### Prompt How did this test come out for N[C@@H](Cc1ccc(O)c(O)c1)C(=O)O ?
### Response false (0)
